Target: wildtype Kras / hSOS1 (Homo sapiens)
Construct: made in house; host or cells: E. coli BL21 (DE3)
Sequence (P01116 1-188 isoform P01116-2): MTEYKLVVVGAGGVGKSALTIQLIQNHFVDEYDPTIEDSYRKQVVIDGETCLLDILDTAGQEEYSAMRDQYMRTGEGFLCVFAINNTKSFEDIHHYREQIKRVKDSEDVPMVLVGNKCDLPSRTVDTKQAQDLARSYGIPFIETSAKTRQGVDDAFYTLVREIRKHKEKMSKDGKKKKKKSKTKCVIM
Assay: HTRF assay, wildtype Kras / SOS1 interaction
Assay type: binding
Settings: compound nos. 102-196, general methodology of example 5; read-out: IC50 against wildtype Kras
Source text: This assay can be also used to assess a selective inhibition of a mutant Ras protein relative to a wildtype, or relative to a different mutant Ras protein. For example, the equilibrium interaction of wildtype Kras or K-Ras mutant (e.g., wildtype or a mutant thereof including those mentioned in Example 6) with SOS1 (e.g., hSOS1) can be assessed as a proxy or an indication for a subject compound's ability to bind and inhibit Ras protein. […]
metric: IC50

Would you please look over these solved cases?
- compound: "CN1CCC[C@H]1COc1nc(N2CCNCC(F)(F)C2)c2cc(Cl)c(-c3cccc4nc(N)oc34)c(F)c2n1 [Compound 166]"
  assay.system: "wildtype Kras / hSOS1 (Homo sapiens)"
  metric: "IC50"
  assay.result: "> 500 nM"
- compound: "CN1CCC[C@H]1COc1nc(N2CCCCC(F)(F)C2)c2cc(Cl)c(-c3cccn4nc(N)nc34)c(F)c2n1 [Compound 182]"
  assay.system: "wildtype Kras / hSOS1 (Homo sapiens)"
  metric: "IC50"
  assay.result: "> 500 nM"

Ask: Fill in IC50 for record Cc1cc2c(N3CCNCC(F)(F)C3)nc(OC[C@@H]3CCCN3C)nc2c(F)c1-c1cccc2sc(N)nc12 [Compound 157]
Result: < 500 nM
